quantity measured: melting point

1) Fc1c(Br)cncc1Br
97 to 99 °C
2) CCOC(=O)Nc1ccc(N)cc1C#N
166 to 168 °C
3) CCNc1ccc(S(=O)(=O)N(C)C)cc1N
161 to 163 °C
4) CCc1cc(C(=O)O)sc1C
108 to 110 °C
5) Oc1ccc(Br)cc1-c1nn[nH]n1
188 to 190 °C
6) COc1ccc(-c2nnc(Cl)c3ccccc23)cc1
148 to 150 °C
7) NC(=NO)c1cc2ccccc2o1
183 to 185 °C
8) Cc1cc(N)nn1-c1ccc(F)cc1F
120 to 122 °C
9) NNC(=O)c1cc(-c2ccccc2)on1
125 to 127 °C
10) Cc1ccc(CCC(=O)O)o1
58 to 60 °C
11) Cc1ccc(C2CS(=O)(=O)CCN2)o1 (stereo unspecified)
111 to 113 °C
12) CC(=O)Nc1cc(Cl)ccc1N
137 to 139 °C
13) Oc1ncc(F)cc1I
119 to 121 °C
14) Cc1nc2ccccc2n1CC(=O)NN
233 to 235 °C
15) CC(C(=O)O)n1nnc(-c2ccccc2)n1 (stereo unspecified)
143 to 145 °C
16) CN(C)S(=O)(=O)c1ccc(NCCO)c(C(=O)O)c1
176 to 178 °C
17) O=S(=O)(Cl)CCS(=O)(=O)c1ccc(F)cc1
145 to 147 °C
18) Cc1nnc(-c2cccc([N+](=O)[O-])c2)o1
158 to 160 °C
19) CC(O)Cc1cc(F)cc(Br)c1 (stereo unspecified)
39 to 41 °C
20) CC(C)Oc1ccc(C(=O)NN)cc1
117 to 119 °C
21) Nc1ccc(SC(F)(F)F)c(F)c1
33 to 35 °C

----------
quantity measured: melting point

1) O=C(CCl)N1CCc2ccccc21
118 to 120 °C
2) Cc1cc(C)c(C(=O)O)c(=O)[nH]1
234 to 236 °C
3) NC(=S)NC1CCCCCC1
89 to 91 °C
4) O=C(Nc1ccc(F)cc1)NC1CCNC1 (stereo not given)
150 to 152 °C
5) CCOc1c(F)cccc1C(=O)O
43 to 45 °C
6) CC=C(C)C=CC(=O)O
89 to 91 °C
7) O=C(O)CSCc1ccc(F)cc1
71 to 73 °C
8) NC(=O)C=Cc1cccnc1
149 to 151 °C
9) Cc1ccc(NS(C)(=O)=O)c(C(=O)O)c1
195 to 197 °C
10) Cc1cccc(NC(=O)N2CCCC(C(=O)O)C2)c1 (stereo not given)
139 to 141 °C
11) COC(=O)c1cncc(I)c1
79 to 81 °C
12) CC(C)(C)OC(=O)c1ccc(N)cc1
99 to 101 °C
13) O=C(O)CNC(=O)c1ccccc1I
174 to 176 °C
14) CCc1ccccc1OCC(=O)NN
107 to 109 °C
15) Cc1ccccc1-c1csc(=O)[nH]1
123 to 125 °C
16) CCOC(C)c1nc(CC(=O)O)cs1 (stereo not given)
91 to 93 °C
17) N#CCC1CC2=C(CCCC2=O)O1 (stereo not given)
104 to 106 °C
18) O=C(O)c1cc(S(=O)(=O)Cl)c(Br)s1
109 to 111 °C
19) CC1=CC=CC(=C2Nc3ccc(F)cc3N2C(C)C)C1=N
160 to 162 °C
20) Nc1ccnn1C1CCS(=O)(=O)C1 (stereo not given)
169 to 171 °C
21) Cc1cccc(-n2nc(-c3ccco3)cc2N)c1
82 to 84 °C
22) N#CCc1ccnc(N)c1
104 to 106 °C
23) COc1ccc2c(c1)C1(CC2)NC(=O)NC1=O (stereo not given)
189 to 191 °C
24) NCC(O)c1ccc(Cl)c(F)c1 (stereo not given)
54 to 56 °C
25) O=C(O)CSc1nnc(-c2ccccc2F)n1-c1ccccc1
210 to 212 °C
26) CCNC(=O)NC1CCC(O)CC1 (stereo not given)
36 to 39 °C
27) Nc1ccnc(OCCO)c1
99 to 101 °C
28) CS(=O)(=O)c1ccsc1N
90 to 92 °C
29) O=C(CCl)c1cnc(N2CCCCC2)s1
118 to 120 °C
30) CC(=O)c1ccc(S(=O)(=O)CC(F)F)cc1
97 to 99 °C
31) CC(=O)N1CCC(CCC(=O)O)CC1
119 to 121 °C
32) CCn1ccc(=O)nc1S
242 to 244 °C
33) CC(C)Cc1nc(C(=O)O)cs1
104 to 106 °C
34) CC1(C#N)CCN(C(=O)C(F)(F)F)CC1
41 to 43 °C
35) O=C(O)c1cccc(C(=O)N2CCCC2)n1
125 to 127 °C
36) CCOC(=O)/C(C#N)=C/Nc1ccc(OCC)cc1
115 to 117 °C
37) CCOc1ccc(S(=O)(=O)Cl)cc1
40 to 45 °C
38) Cc1cc(C(=O)CCl)c(C)n1-c1ccc(C(F)(F)F)cc1
115 to 117 °C
39) CC(Cl)C(=O)Nc1ccccc1Cl (stereo not given)
63 to 65 °C
40) Cc1cc(=O)[nH]c(C)c1C(=O)O
274 to 276 °C
41) COc1ccc(NC(=O)C=CC(=O)O)cc1OC
119 to 121 °C
42) COC(=O)NCc1ccc(N)cc1
95 to 97 °C
43) Cc1cc(C#N)ccc1O
89 to 91 °C
44) CC(C)(C)OC(=O)N1CCOCC1C(=O)O (stereo not given)
162 to 164 °C
45) COCCNS(=O)(=O)c1ccc(C#N)cc1
88 to 90 °C
